B1: 2K2A (parent)
chain: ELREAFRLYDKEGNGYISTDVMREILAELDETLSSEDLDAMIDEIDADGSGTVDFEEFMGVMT

variants of: B1; assay: folding stability dG (cDNA display proteolysis); higher = more stable; settings: PBS, room temperature
Assignment: determine reported folding stability dG for the given variants.
Give bare numbers, in kcal/mol.

variant.spec: D20F
quantitative.readout: 1.89

Here are 5 variants. What values of folding stability dG were reported for them?
1. S18Y
2. F55M
3. A47Q
4. M62L
5. G15R

Response:
1: 1.32; 2: 1.31; 3: 1.93; 4: 1.5; 5: 0.333

# return folding stability dG for each item in the list
1. L2G
2. G51H
3. L26R
4. I42Y
5. M59Y
6. N14H
7. E4N

Response:
1: 0.65; 2: 1.39; 3: -0.879; 4: -0.094; 5: 2.02; 6: 1.63; 7: 1.4

# batch: return folding stability dG for each of the 4 variants below
1. G13A
2. E56C
3. N14C
4. A27R

Response:
[1.05, 1.92, 1.43, 2.25]

List reported folding stability dG for each of these variants:
1. D30K
2. Y16S
3. T63A
4. E31N
5. I42L
6. D20G

Response:
1: 1.45; 2: 1.03; 3: 1.97; 4: 2.15; 5: 1.73; 6: 1.89
